Reported values of Release Rate (%/day) for individual entries
experiment: Hydrolysis rate / drug release rate of the compounds (release of JAK inhibitor, HPLC); type: physicochemical; conditions: % release of JAK inhibitor from sample in acetonitrile/water=7/3 (v/v), 37° C. constant temperature shaker, sampled days 1-4, HPLC
Express your answer in %/day, writing the number without its unit.

Study these solved cases before continuing.
CC[C@@H]1CN(C(=O)NCC(F)(F)F)C[C@@H]1c1cnc2cnc3c(ccn3C(=O)[C@@H](C)c3ccc(CC(C)C)cc3)n12 [Ex. 123] :: 3.02
CNS(=O)(=O)C[C@H]1CC[C@H](N(C)c2ncnc3c2ccn3C(=O)c2ccccc2Nc2cccc(C)c2C)CC1 [Ex. 43] :: 2.99

Alright, here's another compound for you.
Ask | Can you share its Release Rate (%/day)? I mean this compound: COc1ccc2cc([C@H](C)C(=O)n3ccc4c(-c5cnn([C@H](CC#N)C6CCCC6)c5)ncnc43)ccc2c1 [Ex. 31]
Reply | 3.08
